- System: Botrytis cinerea
- experiment: Test E: tomato botrytis, preventive spray on tomato seedlings
- condition_label: 40 ppm (marked *); 100 = 100% disease control, 0 = no control
Marks after values point to notes of the source that are not given here.
Documented Test E disease control rating across a set of compounds

// solved cases for Test E disease control rating follow
smiles_entry: Cc1ccn(-c2nc(Cl)c(-c3c(F)cc(F)cc3F)n(-c3ccccc3)c2=O)n1
target_system: Botrytis cinerea
measurement: 99* %

smiles_entry: Cc1ccn(-c2nc(Cl)c(-c3c(F)cccc3F)n(-c3cccc(C)c3C)c2=O)n1
target_system: Botrytis cinerea
measurement: 98* %

smiles_entry: O=c1c(-n2cncn2)nc(Cl)c(-c2c(F)cccc2F)n1Cc1cccc(Cl)c1
target_system: Botrytis cinerea
measurement: 98* %

smiles_entry: CSCCn1c(-c2c(F)cccc2F)c(Cl)nc(-n2ccc(C)n2)c1=O
target_system: Botrytis cinerea
measurement: 94* %

smiles_entry: Cc1cc(C)c(-c2c(Cl)nc(-n3ccc(C)n3)c(=O)n2CC(C)C)c(C)c1
target_system: Botrytis cinerea
measurement: 59* %

Kindly state the measured Test E disease control rating obtained for O=c1c(-n2cccn2)nc(Cl)c(-c2c(F)cc(F)cc2F)n1-c1ccccc1F with Botrytis cinerea.
99* %

Please give the result for Cc1cccc(-n2c(-c3c(F)cccc3F)c(Cl)nc(-n3cccn3)c2=O)c1 too.
99* %

Please give the result for N#Cc1nc(Cl)c(-c2c(F)cccc2F)n(Cc2ccc(F)cc2)c1=O too.
0* %

----------
Documented Test K disease control rating across a set of compounds
- System: Puccinia recondita f. sp. tritici
- experiment: Test K: wheat leaf rust, preventive spray on wheat seedlings
- condition_label: 200 ppm
Write the number in % without appending the unit.

// solved cases for Test K disease control rating follow
smiles_entry: CC(C)Cn1c(-c2cc(Br)c3c(c2)OCO3)c(Cl)nc(-n2cccn2)c1=O
Test K disease control rating (%): 0

smiles_entry: CC(C)=NNc1nc(Cl)c(-c2c(F)cccc2F)n(CC(C)C)c1=O
Test K disease control rating (%): 80

Kindly state the measured Test K disease control rating obtained for C=CCn1c(-c2c(F)cccc2F)c(Cl)nc(-n2cccn2)c1=O with Puccinia recondita f. sp. tritici.
100

Please give the result for CC(C)Cn1c(-c2ccc(Cl)cc2)c(Cl)nc(-n2cncn2)c1=O too.
68

Please give the result for CC(C)Cn1c(-c2c(F)cccc2F)c(Cl)nc(-c2cncn2C)c1=O too.
79

Please give the result for CC(C)Cn1c(-c2ccc(C(F)(F)F)cc2)c(Cl)nc(-n2cccn2)c1=O too.
0

Please give the result for CC(C)Cn1c(-c2c(F)cccc2Cl)c(Cl)nc(-n2cccn2)c1=O too.
100

Please give the result for Cc1cccc(C)c1-c1c(Cl)nc(-n2cccn2)c(=O)n1CC(C)C too.
100

Please give the result for CC(C)CCn1c(-c2c(F)cccc2F)c(Cl)nc(-n2cccn2)c1=O too.
88

----------
- Tested on: Rhizoctonia oryzae
- experiment: Test G: turf brown patch, preventive spray on creeping bent grass seedlings
- condition_label: 40 ppm (*)
Marks after values point to notes of the source that are not given here.
Documented Test G disease control rating across a set of compounds

smiles_entry: C#CCn1c(-c2c(F)cccc2F)c(Cl)nc(-n2cccn2)c1=O
Test G disease control rating: 67* %
--
smiles_entry: CCc1ccccc1-c1c(Cl)nc(-n2cncn2)c(=O)n1CC(C)C
Test G disease control rating: 0* %
--
smiles_entry: COc1cccc(-c2c(Cl)nc(-n3cncn3)c(=O)n2CC(C)C)c1
Test G disease control rating: 0* %
--
smiles_entry: CC(C)Cn1c(-c2ccc(C(F)(F)F)cc2F)c(Cl)nc(-n2cncn2)c1=O
Test G disease control rating: 0* %
--
smiles_entry: O=c1c(-n2cncn2)nc(Cl)c(-c2c(F)cccc2F)n1Cc1ccco1
Test G disease control rating: 0* %
--
smiles_entry: COC(=O)Cn1c(-c2c(F)cccc2F)c(Cl)nc(-n2cccn2)c1=O
Test G disease control rating: 16* %
--
smiles_entry: Cc1cc(C)cc(-c2c(Cl)nc(-n3cccn3)c(=O)n2CC(C)C)c1
Test G disease control rating: 0* %
--
smiles_entry: CC(C)Cn1c(-c2cccc3ccccc23)c(Cl)nc(-n2cncn2)c1=O
Test G disease control rating: 0* %

Next compound, Test G disease control rating to be filled in.
Fill in the blank: the reported Test G disease control rating of CC(C)Cn1c(-c2c(F)cccc2C(F)(F)F)c(Cl)nc(-n2cncn2)c1=O is ____.
26* %
